System: rice
Assay: Low temperature assay on rice seedlings
Type: in vivo
Conditions: 1 mg/l, 1 °C, 6 days
property: Height (cm)
Please reply with the bare figure in cm and do not write the unit itself.

Could you share what Height was measured for C=C(C(C)C)[C@@H](O)[C@H](O)[C@@H](C)[C@H]1CCC2C3COC(=O)C4C[C@H](O)[C@H](O)C[C@]4(C)C3CC[C@@]21C (stereo partly drawn) , tested on rice?
7.2

Could you share what Height was measured for CC(C)C[C@@H](O)[C@H](O)[C@@H](C)[C@H]1CCC2C3CC(=O)C4C[C@H](O)[C@H](O)C[C@]4(C)C3CC[C@@]21C (stereo partly drawn) , tested on rice?
7.3

Could you share what Height was measured for CC(C)(O)CC[C@@H](O)[C@](C)(O)[C@H]1CC[C@@]2(O)[C@@H]3CC(=O)[C@@H]4C[C@@H](O)[C@@H](O)C[C@]4(C)[C@H]3CC[C@]12C , tested on rice?
7.2

Could you share what Height was measured for CC[C@@H](C(C)C)[C@@H](O)[C@H](O)[C@@H](C)[C@H]1CCC2C3COC(=O)C4C[C@H](O)[C@H](O)C[C@]4(C)C3CC[C@@]21C (stereo partly drawn) , tested on rice?
7.3

Could you share what Height was measured for CC(C)[C@H](C)[C@@H](O)[C@H](O)[C@@H](C)[C@H]1CCC2C3CC(=O)C4C[C@H](O)CC[C@]4(C)C3CC[C@@]21C (stereo partly drawn) , tested on rice?
7

Could you share what Height was measured for CC(C)[C@H](C)[C@@H](O)[C@H](O)[C@@H](C)[C@H]1CCC2C3COC(=O)C4C[C@H](O)[C@H](O)C[C@]4(C)C3CC[C@@]21C (stereo partly drawn) , tested on rice?
7.2
